The origin of these recorded values is the supplement of paper PMC10567573.

Below, each of the variants is paired with its reported protein stability index value.
B1: EPB41L3 (parent)
chain: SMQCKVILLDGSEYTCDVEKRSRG

Variants of: B1
test.name: protein stability index of a GFP-peptide fusion (GPS, HEK-293T) (PSI 1-6); higher = more stable;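 note: lentivirally expressed fusions sorted by FACS into six bins by GFP to DsRed ratio, PSI derived from sequencing read proportions per bin multiplied by bin number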
conditions: c terminus: a fixed tail appended
Respond using a number only.

Need protein stability index of S1P , thanks.
3.04

Item under review: C16W . Reported protein stability index?
2.01

Entry under review: S12M . Reported protein stability index?
1.98

Item D17R has what recorded protein stability index?
3.07

What does the record list as protein stability index for G11E ?
2.03
